Reference for the values: patent US20120202819A1

measured_on: human β3 adrenergic receptor (Homo sapiens, UniProt P13945)
Construct: expressed in transfected cells; host or cells: Chinese hamster ovary (CHO) cells, stably transfected
Sequence (P13945 whole entry): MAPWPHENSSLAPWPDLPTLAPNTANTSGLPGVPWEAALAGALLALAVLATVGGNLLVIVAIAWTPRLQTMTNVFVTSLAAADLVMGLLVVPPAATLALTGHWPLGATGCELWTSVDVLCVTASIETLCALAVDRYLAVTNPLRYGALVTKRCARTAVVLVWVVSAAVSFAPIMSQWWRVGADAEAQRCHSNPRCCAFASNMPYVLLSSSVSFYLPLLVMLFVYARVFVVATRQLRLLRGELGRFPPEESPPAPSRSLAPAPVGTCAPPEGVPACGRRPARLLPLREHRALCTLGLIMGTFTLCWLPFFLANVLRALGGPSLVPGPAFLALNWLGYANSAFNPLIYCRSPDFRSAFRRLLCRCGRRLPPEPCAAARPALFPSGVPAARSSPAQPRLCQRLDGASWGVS
experiment: Functional assay: cAMP production in CHO cells transfected with cloned β-adrenergic receptor
Assay type: cell-based
assay_context: cAMP, CHO cells; read-out: human β3 functional activity
property_measured: EC50

Past entries and their recorded results:
Nc1nc2c(s1)CCC2C(=O)Nc1ccc(C[C@@H]2CC[C@H]([C@H](O)c3ccccc3)N2)cc1 (stereo partly shown) [Compound 3] ... < 1 nM
O=C(Nc1ccc(C[C@@H]2CC[C@H]([C@H](O)c3ccccc3)N2)cc1)[C@@H]1CCc2nccc(=O)n21 [Compound 14] ... 11 to 100 nM
O=C(Nc1ccc(C[C@@H]2CC[C@H]([C@H](O)c3ccccc3)N2)cc1)[C@@H]1CCc2cccc(=O)n21 [Compound 12] ... 1 to 10 nM
Nc1nc(CC(=O)Nc2ccc(C[C@@H]3CC[C@H]([C@H](O)c4ccccc4)N3)cc2)cs1 [Compound 2] ... 1 to 10 nM
Cc1ncn(C(C)C(=O)Nc2ccc(C[C@@H]3CC[C@H]([C@H](O)c4ccccc4)N3)cc2)n1 (stereo partly shown) [Compound 11] ... 1 to 10 nM

Ask: Look up and report measured EC50 for this entry: Nc1nc(CC(=O)Nc2ccc(CC3CC[C@H]([C@H](O)c4ccccc4)N3)cc2)cs1 (stereo partly shown) [Compound 1]
Result: 1 to 10 nM

Ask: Entry O=C(Nc1ccc(C[C@@H]2CC[C@H]([C@H](O)c3ccccc3)N2)cc1)[C@H]1CCc2cccc(=O)n21 [Compound 13] needs its EC50 filled in; supply it.
Result: < 1 nM
